Data origin: patent US20200079833A1

Listed below: Primary assay EC50 (cAMP), n1 values for each entry.
Subject Of Test: glucagon receptor (GCGR), primary cAMP assay (human, UniProt P47871 26-477)
Sequence (P47871 26-477): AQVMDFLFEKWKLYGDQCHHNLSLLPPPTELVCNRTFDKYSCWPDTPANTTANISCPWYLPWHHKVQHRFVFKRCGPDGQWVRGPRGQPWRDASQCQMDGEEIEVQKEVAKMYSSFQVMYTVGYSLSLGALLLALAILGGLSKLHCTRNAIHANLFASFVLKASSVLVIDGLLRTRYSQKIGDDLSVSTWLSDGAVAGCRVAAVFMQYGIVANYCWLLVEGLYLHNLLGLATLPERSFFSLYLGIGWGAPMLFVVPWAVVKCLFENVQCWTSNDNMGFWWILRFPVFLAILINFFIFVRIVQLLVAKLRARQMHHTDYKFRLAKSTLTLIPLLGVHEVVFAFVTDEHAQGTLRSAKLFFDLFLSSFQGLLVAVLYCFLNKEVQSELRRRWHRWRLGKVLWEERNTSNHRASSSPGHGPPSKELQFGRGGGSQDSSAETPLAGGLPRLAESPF
Protocol Notes: cell-based or functional assay
Starred links: 1 amine or outer side, 2 acyl side, 3 side chain; linkers in the order of their positions; H or OH if unused. Non-standard residues stand in square brackets, D forms with d. Groups on a side chain read outwards from the residue. Primed or numbered codes have the meaning given here. No end group written: not given here. *: point of attachment. γGlu = O=C(O)[C@H](CCC(=O)[*:2])N[*:1]; Palmitoyl = CCCCCCCCCCCCCCCC(=O)*; αMeF = C[C@](N)(Cc1ccccc1)C(=O)O; αMeK = C[C@](N)(CCCCN)C(=O)O; Lauroyl = CCCCCCCCCCCC(=O)*; αMeS = C[C@](N)(CO)C(=O)O; PEG2′ = not defined here; Aib = CC(C)(N)C(=O)O
Provide the reading as a plain figure in nM.

For the binder H[Aib]EGTFTSDVSK([PEG2′-PEG2′-γGlu-Palmitoyl])FLEGEAAEEFIK([PEG2′-PEG2′-γGlu-Palmitoyl])FVVEGG-NH2 [SEQ ID NO: 245] , what Primary assay EC50 (cAMP), n1 is on record?
21.6

What do you have for H[Aib]EGS[αMeF]TSDV[αMeS]SYK([PEG2′-PEG2′-γGlu-Palmitoyl])EGEAA[αMeK]EFIAK([PEG2′-PEG2′-γGlu-Palmitoyl])VVEGG-NH2 [SEQ ID NO: 272] ?
21.9

What do you have for H[Aib]EGS[αMeF]TSDV[αMeS]SK([PEG2′-PEG2′-γGlu-Lauroyl])LEGEAA[αMeK]EFIAWK([PEG2′-PEG2′-γGlu-Lauroyl])VEGG-NH2 [SEQ ID NO: 264] ?
22.6

What do you have for H[Aib]EGS[αMeF]TSDVSK([PEG2′-PEG2′-γGlu-Palmitoyl])YLEGEAAEEFIK([PEG2′-PEG2′-γGlu-Palmitoyl])WVVEGG-NH2 [SEQ ID NO: 246] ?
21.4
